Target: NADPH oxidase 4 (Homo sapiens) (UniProt Q9NPH5)
Sequence (Q9NPH5 whole entry, looked up): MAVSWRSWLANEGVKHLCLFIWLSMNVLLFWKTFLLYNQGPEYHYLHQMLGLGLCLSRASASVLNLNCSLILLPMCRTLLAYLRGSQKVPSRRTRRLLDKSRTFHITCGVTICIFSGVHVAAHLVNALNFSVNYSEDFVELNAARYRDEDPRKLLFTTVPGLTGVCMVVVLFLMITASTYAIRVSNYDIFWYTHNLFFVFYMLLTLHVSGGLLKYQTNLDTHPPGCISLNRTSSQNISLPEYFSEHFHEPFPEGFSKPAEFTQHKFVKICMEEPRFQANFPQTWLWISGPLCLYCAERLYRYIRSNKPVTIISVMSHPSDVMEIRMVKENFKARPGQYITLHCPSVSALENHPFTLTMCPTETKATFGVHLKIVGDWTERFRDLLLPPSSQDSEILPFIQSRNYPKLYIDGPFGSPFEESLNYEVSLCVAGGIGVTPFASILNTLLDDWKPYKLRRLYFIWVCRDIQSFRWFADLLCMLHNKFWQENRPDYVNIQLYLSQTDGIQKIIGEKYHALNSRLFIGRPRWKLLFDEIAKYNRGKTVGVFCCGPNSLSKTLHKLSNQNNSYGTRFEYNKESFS
Assay: NOX4-dependent H2O2 signal modulators, primary screen, NOX inhibitor project, cell-based, HEK293-NOX4, tetracycline-induced, Amplex Red fluorescence (AID 1160)
Conditions: 45 min, higher = more signal, called active from +8 up or from −8 down
ENDPOINT NAME: z-score
# output: bare number, no unit

# count of solved cases: 2
[[record]]
compound = "C=CC[C@@]1(C(=O)NCC(O)CO)N=C(c2ccc(OCCCO)cc2)O[C@@H]1c1ccccc1CN=[N+]=[N-] (some centres not stated)"
observed = 0.495

[[record]]
compound = "C=CCc1cccc([C@@H]2[C@@H](C)CC[C@H]3C(=O)N4[C@H](c5cccc(CC=C)c5)[C@@H](C)CC[C@H]4C(=O)N23)c1"
observed = -0.0735


Req: Quick one: z-score for CCOC(=O)C[C@H]1[C@H](OC(=O)c2ccccc2-c2ccccc2)[C@@H](NC(=O)c2ccc(-c3ccccc3)cc2)c2cc(OCCCO)ccc2N1C(=O)Cc1ccc(OC)cc1 ?
Resp: 1.22

Req: Quick one: z-score for O=C1O[C@H](c2ccccc2)[C@H](c2ccccc2)N2[C@H]1[C@@H](C(=O)Nc1nc3ccccc3s1)[C@]1(C(=O)Nc3ccc(C#CC4=CCCCC4)cc31)[C@H]2c1ccccc1OCCO ?
Resp: 0.195

Req: Quick one: z-score for COc1cc(Cc2cc3c(c(CCc4ccccc4)n2)[Si](C(C)C)(C(C)C)OC3)cc(OC)c1OC ?
Resp: -0.231

Req: Quick one: z-score for COC(=O)C1=CC(c2ccc(CO)cc2)=CC(c2cccs2)N(Cc2cccc(OC(F)(F)F)c2)C=C1C(=O)OC (configuration not stated) ?
Resp: -1.96

Req: Quick one: z-score for Cc1ccc(N2C(=O)c3ccccc3[C@](C)(C(=O)NCC(C)C)[C@@H]2c2ccc(CO)cc2)nc1 ?
Resp: -0.657
